All figures here come from patent US20260216354A1.

Molecular target: T1, cMet-ECD-hFc (Homo sapiens, UniProt P08581)
T1 construct: made in house; host or cells: HEK293E
T1 sequence (P08581 25-932): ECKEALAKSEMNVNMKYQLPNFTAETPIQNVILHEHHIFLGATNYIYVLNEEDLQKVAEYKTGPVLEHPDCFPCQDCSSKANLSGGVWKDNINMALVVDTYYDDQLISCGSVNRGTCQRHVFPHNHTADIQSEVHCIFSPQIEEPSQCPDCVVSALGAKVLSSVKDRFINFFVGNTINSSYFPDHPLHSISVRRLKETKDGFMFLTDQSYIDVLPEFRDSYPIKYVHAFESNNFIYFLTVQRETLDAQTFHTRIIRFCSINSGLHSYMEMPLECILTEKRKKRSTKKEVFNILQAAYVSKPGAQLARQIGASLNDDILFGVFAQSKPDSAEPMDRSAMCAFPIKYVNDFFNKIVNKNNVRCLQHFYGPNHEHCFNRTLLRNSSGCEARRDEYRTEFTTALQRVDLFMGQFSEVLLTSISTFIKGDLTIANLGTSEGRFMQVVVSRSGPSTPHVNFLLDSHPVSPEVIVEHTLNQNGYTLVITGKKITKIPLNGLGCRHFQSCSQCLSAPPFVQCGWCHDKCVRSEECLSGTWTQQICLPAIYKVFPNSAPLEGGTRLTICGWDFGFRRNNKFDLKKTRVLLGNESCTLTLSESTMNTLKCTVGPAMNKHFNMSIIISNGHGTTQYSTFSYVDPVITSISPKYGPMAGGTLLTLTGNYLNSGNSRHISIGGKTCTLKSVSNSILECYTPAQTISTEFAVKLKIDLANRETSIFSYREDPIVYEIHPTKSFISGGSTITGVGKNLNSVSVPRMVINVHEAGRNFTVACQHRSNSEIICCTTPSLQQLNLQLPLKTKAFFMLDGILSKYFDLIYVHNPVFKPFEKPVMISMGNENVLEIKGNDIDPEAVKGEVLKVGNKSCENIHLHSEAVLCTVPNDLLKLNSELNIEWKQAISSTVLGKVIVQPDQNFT
Assay: ELISA affinity of murine-derived antibodies to human MET-ECD-hFc
Assay type: binding
READOUT: cMet-ECD-hFc (EC50 = ng/ml) (ng/mL)
Output spec: scalar in ng/mL, unitless text.

Qu. Can you share its cMet-ECD-hFc (EC50 = ng/ml)? I mean this molecule: 45A5G10: murine-derived anti-cMET monoclonal antibody; VL SEQ ID NO: 1, VH SEQ ID NO: 2 (antibody, V domains shown) VH: EVRLEESGGGFVQPGGSMKISCVASGFTFSNYWMNWVRQSPEKGLEWVAQIRLKSLNYATHYAESVKGRFTISRDDSRNSVYLQMNNLRAEDAGIYYCTEEGFAYWGRGTLVTVSA VL: IVMTQSPASLPVSLGQRATISCRASESVDDYGVSFVNWFQQKPGQPPKLLIYTASVQESGVPARFSGSGSGTDFSLNIHPLEEDDTAMYFCQQSKEIPPTFGGGTKLEIK
Ans. 6.387
